- TESTED_SYSTEM: Torsin-1A (Homo sapiens)
- TEST_SUMMARY: small-molecule binders of mutant TOR1A in lysate, primary screen, cell lysate, small-molecule microarray, COS7 lysate, 635/667 nm fluorescence (AID 1150);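 note: score pools 667 nm emission and signal to noise measuring lysate protein binding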
- CONDITION_NOTES: COS7 hTOR1A mutant lysate, 635 nm fluorescence, higher = more signal

COMPOUND | TESTED_SYSTEM | composite z-score
COC(=O)c1c2oc(c1C(=O)OC)C(=O)N(Cc1ccccc1)Cc1cn(nn1)C[C@H](Cc1ccccc1)NC(=O)N[C@H](CO)CC2 | Torsin-1A (Homo sapiens) | 0.218
Cc1cc(C)c(C(O)C2C=CC3C(=O)N(c4ccccc4)C(=O)C3N2Nc2ccc(C(C)C)cc2)c(C)c1 (stereo unspecified) | Torsin-1A (Homo sapiens) | 0.333
COCCOC(=O)N1C(=O)[C@@]2(c3cc(C#CCCO)ccc31)[C@H](C(=O)Nc1nc3ccccc3s1)[C@H]1C(=O)O[C@H](c3ccccc3)[C@H](c3ccccc3)N1[C@@H]2c1ccccc1OCCO | Torsin-1A (Homo sapiens) | 1.12
COCCCNC(=O)[C@]1(CCS(=O)(=O)c2ccccc2)N=C(c2ccc(OCCCO)cc2)O[C@@H]1c1ccccc1N=[N+]=[N-] | Torsin-1A (Homo sapiens) | 0.441
C=CCNC(=O)[C@H]1[C@@H]2C(=O)O[C@@H](c3ccccc3)[C@@H](c3ccccc3)N2[C@@H](c2ccc(O)cc2)[C@]12C(=O)N(C(=O)OCCOC)c1ccccc12 | Torsin-1A (Homo sapiens) | 1.02
C[C@H]1NC(=O)[C@@]23C(=O)N[C@@H](Cc4ccccc4)C2[C@H](C)[C@@]2(C)O[C@H]2C3/C=C/C/C=C\CNC(=O)[C@H](Cc2ccccc2)NC1=O (stereo partly specified) | Torsin-1A (Homo sapiens) | 0.113
